meta.source: patent US6342498B1

Recorded melting point for the following molecules

> print(dat)
                                   molecule  recorded.metric   result.value
1  COc1ccccc1N1CCN(CCNC(=O)CCN2CC=C(c3c[nH]c4cc(Cl)ccc34)CC2)CC1 [Example 2]    melting point  181 to 183 °C

q: Which melting point is reported for this molecule? COc1ccccc1N1CCN(CCNCCCN2CC=C(c3c[nH]c4cc(Cl)ccc34)CC2)CC1 [Example 7]
a: 71 to 73 °C

q: Look up melting point for this molecule: COc1ccccc1N1CCN(CCCCCCN2CC=C(c3c[nH]c4cc(F)ccc34)CC2)CC1 [Example 14]
a: 105 to 107 °C
